Tested on: T-47D breast
Assay: NCI-60 one-dose screen, 48 h (100 = growth as untreated, 0 = no growth, -100 = all killed)
Conditions: 10 µM unless noted
About 83,000 compounds went through this panel and 20% of them were active in at least one assay; those are over-represented in the sample as a whole.
growth values for the compounds below.
Give a bare numeral; the unit % is implied.

The cases that follow already have their growth on record.
>>> observed_value("CN1CCN(Cc2ccc(C(=O)Nc3cccc(C#Cc4cccc5[nH]nc(N)c45)c3)cc2C(F)(F)F)CC1")
-70.4
>>> observed_value("Cc1ccc(C(=O)CSc2nc3ccc(C)cc3c(=O)n2-c2ccc(F)cc2)cc1")
52.5
>>> observed_value("N#Cc1c(-c2ccc(Cl)cc2)nc2n[nH]c(-c3ccc(Cl)cc3)c2c1-c1ccc(C(F)(F)F)cc1")
-2.6

Problem: Please give the measured growth for this compound: COc1cc(OC)cc(C(=O)Nc2cccc(-c3cn(-c4ccc(S(N)(=O)=O)cc4)nn3)c2)c1
Solution: 87.8

Problem: Please give the measured growth for this compound: N#Cc1ccc(/C=N/NC(=O)c2[nH]c3ccc(Br)cc3c2-c2ccccc2)o1
Solution: 23.8

###

Tested on: COLO 205 colon
Assay: NCI-60 one-dose screen, 48 h (100 = growth as untreated, 0 = no growth, -100 = all killed)
Conditions: 10 µM unless noted
Compounds without any hit were thinned out: in the full panel of roughly 83,000, 20% have a hit.
REPORTED_PROPERTY: growth (%)
Give a bare numeral; the unit % is implied.

The cases that follow already have their growth on record.
>>> observed_value("Cc1nc(Nc2ccccn2)sc1C(=O)CC(SCC(=O)Nc1ccc(Cl)cc1)c1ccccc1F (stereo not given)")
-49.7
>>> observed_value("O=C(NNc1nc2cc(C(F)(F)F)ccc2n2cccc12)c1cnccn1")
-72.3
>>> observed_value("COc1cc(-c2cc(-c3cccc(OCC(=O)O)c3)[nH]c(=O)c2C#N)cc(OC)c1OC")
119
>>> observed_value("CC(=O)Nc1cccc(Nc2nc(N[C@H]3CCCc4ccccc43)c3ccccc3n2)c1")
109

Problem: Recorded growth for Cc1nc(Nc2ncc(C(=O)Nc3c(C)cccc3Cl)s2)cc(N2CCN(CCCNC(=O)COc3ccc(C4CCC(=O)NC4=O)cc3)CC2)n1 (stereo not given) with COLO 205 colon, please?
Solution: 10.3

###

Test system: HCT-116 colon
Experiment: NCI-60 one-dose screen, 48 h (100 = growth as untreated, 0 = no growth, -100 = all killed)
Conditions: 10 µM unless noted
This is part of a sample that, as a whole, favours compounds with a hit. Of some 83,000 tested, about 20% had one in any assay.
REPORTED_PROPERTY: growth (%)
Give a bare numeral; the unit % is implied.

>>> observed_value("CN(C)c1nc(NCCNS(=O)(=O)c2ccc(C(=O)/C=C/c3ccc(Cl)cc3)cc2)nc(Nc2ccc(F)cc2)n1")
-91.4
>>> observed_value("COc1cc(C2CC(c3cc(OC)c(OC)c(OC)c3)=NN2C(C)=O)ccc1OCc1ccc(F)cc1 (configuration not stated)")
31.5
>>> observed_value("COc1ccc2oc(=O)c(C3(C)NC(=O)c4c(/C=C/C(=O)OC(C)(C)C)cccc4N3)cc2c1 (configuration not stated)")
30
>>> observed_value("CCCCCCCCc1ccc(C(=O)Nc2cccc(P(=O)(O)O)c2)cc1")
94.3
>>> observed_value("Nc1nnc(-c2c[nH]c3ccc(Br)cc23)c(-c2c[nH]c3ncc(Br)cc23)n1")
17.1
>>> observed_value("NS(=O)(=O)c1ccc(-n2cc(-c3cccc(NC(=O)c4cc(C(F)(F)F)cc(C(F)(F)F)c4)c3)nn2)cc1")
46.7

API: the following record is the query input.
Problem: Please give the measured growth for this molecule: C=C1CC[C@@H]2[C@]3(C)COC(c4cn[nH]c4-c4cccc(Br)c4)O[C@@H]3CC[C@@]2(C)[C@@H]1C/C=C1/C(=O)OCC1O (some centres not stated)
Solution: -95.9
